Where do these numbers come from? They come from paper PMC8305076.

- System: PATU-8902
- assaySummary: MTT cell viability assay
- Type: cell-based
- studyConditions: Homo sapiens, 48 h, normoxic (19% O2), read-out: IC50 MTT-N mean
pIC50: −log10 of the molar value.
Classification field: enter 1 for pIC50 values not below 6, -1 for values below it.

Exam item: decide whether the reported pIC50 for CCOc1c2c(c3cnc4[nH]c(-c5ccc(OC)cc5)cc4n13)SSSSS2 is at least 6. 1

Exam item: decide whether the reported pIC50 for CCOc1c2c(c3ccc(C(=O)N4CCCCC4)cn13)SSSSS2 is at least 6. -1

---
Exam item: decide whether the reported pIC50 for CCOc1c2c(c3ccc(C(=O)N4CCN(S(=O)(=O)c5ccc(C)cc5)CC4)cn13)SSSSS2 is at least 6. -1

* * *

- experimentalTarget: bovine erythrocyte GPx1 (Bos taurus)
- Construct: the isolated enzyme from bovine erythrocytes; purchased Sigma-Aldrich (Taufkirchen, Germany); host or cells: isolated from bovine erythrocytes
- Sequence (P00435 1-205): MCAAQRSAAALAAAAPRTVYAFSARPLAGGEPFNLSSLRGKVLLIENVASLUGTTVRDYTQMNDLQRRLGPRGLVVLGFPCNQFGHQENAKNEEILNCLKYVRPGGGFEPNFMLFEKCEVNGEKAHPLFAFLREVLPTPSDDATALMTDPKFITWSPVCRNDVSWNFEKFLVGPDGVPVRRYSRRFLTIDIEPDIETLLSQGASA
- assaySummary: GPx1 enzyme activity assay (NADPH-coupled, t-BHP substrate)
- Assay type: biochemical
- Set-up: key: no impact (0); weak impact (+); strong impact (++)
- studyConditions: summary grade
- Protocol: The inhibition of GPx1 by pentathiepins has already been reported by us previously. […] The resulting glutathione disulfide (GSSG) was reduced back to GSH by glutathione reductase (GR), thereby converting NADPH to NADP^+, which can be photometrically monitored at λ = 340 nm. The rate of NADPH consumption was used to quantify GPx1 enzyme activity. […] The potential of the pentathiepins to inhibit the GPx1 was assessed with an enzymatic assay as described previously. […]
readoutName: GPx1 inhibition

Solved entries (count: 5):
// GPx1 inhibition lookup, key: CCOc1c2c(c3ccc(C(=O)N4CCOCC4)cn13)SSSSS2 ++

// GPx1 inhibition lookup, key: CCOc1c2c(c3ccc(C(=O)N4CCN(C(=O)c5ccc(F)cc5)CC4)cn13)SSSSS2 ++

// GPx1 inhibition lookup, key: CCOc1c2c(c3ccc(C(=O)N4CCCCC4)cn13)SSSSS2 +

// GPx1 inhibition lookup, key: CCOc1c2c(c3ccc(C(=O)N(CC)CC)cn13)SSSSS2 ++

// GPx1 inhibition lookup, key: CCOc1c2c(c3cnc4[nH]c(-c5ccc(OC)cc5)cc4n13)SSSSS2 ++

With those in mind, consider the next molecule.
// GPx1 inhibition lookup, key: CCOc1c2c(c3ccc(C(=O)N4CCN(S(=O)(=O)c5ccc(C)cc5)CC4)cn13)SSSSS2 0

* * *

- Tested on: LCLC-103H
- assaySummary: MTT cell viability assay
- Type: cell-based
- studyConditions: Homo sapiens, 48 h, hypoxic (1% O2), read-out: IC50 MTT-H mean
readoutName: IC50 (nM)
Your answer is read as nM, so omit the unit and give the number.

// IC50 lookup, key: CCOc1c2c(c3ccc(C(=O)N4CCN(S(=O)(=O)c5ccc(C)cc5)CC4)cn13)SSSSS2 [Compound 6] 2530

// IC50 lookup, key: CCOc1c2c(c3cnc4[nH]c(-c5ccc(OC)cc5)cc4n13)SSSSS2 [Compound 1] 552

// IC50 lookup, key: CCOc1c2c(c3ccc(C(=O)N(CC)CC)cn13)SSSSS2 [Compound 4] 827
